Listed molecules paired with reported GI50
Test system: HCT-15
PROTOCOL_SUMMARY: Cytotoxicity against human HCT15 cells assessed as inhibition of cell growth incubated for 72 hrs by SRB assay
Type: functional
EXPERIMENTAL_PARAMETERS: Homo sapiens, HCT-15, 72 h

Input line: Tell me its GI50 on HCT-15: `COc1ccc(-c2cc(-c3ccc(OC)c4ccccc34)nc3cnc4ccccc4c23)cc1`
Output line: > 10 µM

Input line: Tell me its GI50 on HCT-15: `COc1ccc(-c2cc(-c3ccccc3Cl)nc3cnc4ccccc4c23)cc1`
Output line: 2.15 µM

Input line: Tell me its GI50 on HCT-15: `COc1ccc(-c2cc(-c3ccc(N(C)C)cc3)nc3cnc4ccccc4c23)cc1`
Output line: 1.86 µM

Input line: Tell me its GI50 on HCT-15: `COc1ccc(-c2cc(-c3ccc(OC)cc3)c3c(cnc4ccccc43)n2)cc1`
Output line: > 10 µM

Input line: Tell me its GI50 on HCT-15: `COc1ccc(-c2cc(-c3ccc(Br)cc3)nc3cnc4ccccc4c23)cc1`
Output line: 1.97 µM

Input line: Tell me its GI50 on HCT-15: `CCCCCCn1cc(-c2cc(-c3ccc(OC)cc3)c3c(cnc4ccccc43)n2)c2ccccc21`
Output line: > 10 µM
